Tested on: TK-10
test-details: NCI tumour cell line growth inhibition, 48 h
Active and inactive are the calls of the source. No stated cut-off is given here; in the data, active = GI50 up to about 1.1 µM and inactive = higher.
Provide the reported GI50 of each item.

The cases that follow already have their GI50 on record.
smiles-repr: c1ccc2c3c([nH]c2c1)C1(CCCCC1)c1c([nH]c2ccccc12)C31CCCCC1
obs-value: 30.9 µM (inactive)

smiles-repr: NNS(=O)(=O)c1ccc(/C=C2\NC(=O)NC2=O)cc1
obs-value: > 100 µM (inactive)

smiles-repr: O=C(O)CCCCCOc1cccnc1/C=N/NC1=NCCN1
obs-value: > 100 µM (inactive)

smiles-repr: CCO/C([O-])=C(\C(=O)c1ccc([N+](=O)[O-])cc1)[n+]1c(C)n(C)c2ccccc21
obs-value: > 100 µM (inactive)

Hi, could you look up GI50 for each item in my list?
1. CN(CC(=O)O)c1ncc2c(n1)-c1ccccc1CC2
2. CCOC(=O)/C=C(\C(=O)OCC)n1ccc(=O)n(Cc2cn(COCCOC(C)=O)nn2)c1=O
3. Cc1ccc(O)c(-c2cc(-c3cccc(Cl)c3)c(C#N)c(N)n2)c1

*A*
["> 100 µM (inactive)", "15.2 µM (inactive)", "18.1 µM (inactive)"]
